# TARGET_ENTITY: HLA-A*02 (human)
# ASSAY: UV-exchange b2m ELISA
Reported peptide exchange yield by item:

BINDER: ALLAKILQI
peptide exchange yield: 50 to 75%
--
BINDER: SLDPDTLPAV
peptide exchange yield: 20 to 49%
--
BINDER: YLWATIQRI
peptide exchange yield: 50 to 75%
--
BINDER: GVVDPVHGV
peptide exchange yield: 20 to 49%
